molecular target: SOD1 (GST-SOD1 / Flag-SOD1; WT or G93A) (Homo sapiens, UniProt P00441, G94A); construct: full length; GST fusion from pGEX-6P-1 in E. coli BL21, eluted with glutathione (tag apparently kept), loaded with CuSO4 and ZnCl2 (described for activity assay); Flag-tagged in HEK293A for pull-down; experiment: fluorescence polarization (intrinsic fluorescence of compound)
Sequence (P00441 2-154 G94A): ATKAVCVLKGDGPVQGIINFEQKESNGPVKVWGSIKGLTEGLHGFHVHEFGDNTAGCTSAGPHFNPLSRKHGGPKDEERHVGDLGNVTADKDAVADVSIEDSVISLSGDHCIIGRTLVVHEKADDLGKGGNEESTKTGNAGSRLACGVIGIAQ
pKd: −log10 of the molar value.
attributeMeasured: pKd

{"columns": ["givenSmiles", "valueMeasured"],
 "data": [
  ["Nc1c(C(=O)Nc2ccc(Br)cc2Br)sc2nc(-c3cccnc3)ccc12", 4.09]
]}

====

Below: a set of entries, each annotated with reported IC50.
biological target: SOD1-Derlin-1 complex (Flag-SOD1 / Derlin-1-HA) (Homo sapiens, UniProt P00441, G94A); construct: Flag-SOD1 G93A and Derlin-1-HA co-expressed in HEK293A; complex purified on anti-Flag beads for the in vitro assay, or assayed in cells; all tags kept; with Derlin-1; assay: in vitro co-immunoprecipitation of purified complex, immunoblot
Sequence (Q9BUN8 2-251 partner, one chain of several): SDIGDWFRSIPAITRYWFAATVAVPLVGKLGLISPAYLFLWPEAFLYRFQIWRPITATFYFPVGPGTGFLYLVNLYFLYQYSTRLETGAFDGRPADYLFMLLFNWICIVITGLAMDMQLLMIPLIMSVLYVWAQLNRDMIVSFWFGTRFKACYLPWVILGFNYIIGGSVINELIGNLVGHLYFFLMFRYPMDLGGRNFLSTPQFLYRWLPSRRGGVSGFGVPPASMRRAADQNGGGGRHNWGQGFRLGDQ

{"columns": ["molecule", "scaleUnit", "IC50"],
 "data": [
  ["Nc1c(C(=O)Nc2ccc3c(c2)OCO3)sc2nc(-c3cccnc3)ccc12 [#56]", "µM", 23.3],
  ["Nc1c(C(=O)Nc2ccc(Cl)cc2Cl)sc2nc(-c3cccnc3)ccc12 [#56-26]", "µM", 6.2],
  ["Nc1c(C(=O)Nc2ccc(Br)cc2Br)sc2nc(-c3cccnc3)ccc12 [#56-20]", "µM", 7.11]
]}
